- assay summary: MRP1 drug-resistance reversers in H69AR cells – cell-based, doxorubicin co-treatment, pilot screen (AID 601)
- condition details: H69AR cells, CellTiter-Glo, 72 h; compound alone cytotoxicity; at 10 µM
observed property: viability (%)

>>> print(df.to_string())
                                    compound  observed_property  result
 0  CCN(CC)S(=O)(=O)c1ccc2oc(C(=O)N3CCOCC3)c(C)c2c1          viability    96.5
 1  CCc1ccc(C2CC(c3cccc(OC)c3)n3nc(N)nc3N2)cc1 (stereo unspecified)          viability     105
 2  Cc1nc2ccc(S(=O)(=O)NC(C(=O)NCc3cccs3)C(C)C)cc2s1 (stereo unspecified)          viability     111
 3  CC1=C(C(N)=O)C(c2ccncc2)n2nc(-c3ccccc3Cl)nc2N1 (stereo unspecified)          viability     100
 4  CC(C)c1nnc(NC(=O)c2ccc(N3C(=O)CCC3=O)cc2)s1          viability    92.5
 5   COC(=O)c1ccc(-c2nn(C)c(=O)c3ccccc23)cc1          viability    94.6
 6    COc1cccc(N(C(C)=O)c2nc(C)cc(C)c2C#N)c1          viability     104
 7  CC1(C)CC(=O)C2=C(C1)NC(=O)CC2c1ccc(N(CCC#N)CCC#N)cc1 (stereo unspecified)          viability     110
 8            Cc1ccc(C)n1-c1ccc(N2CCOCC2)cc1          viability    77.9
 9  CC1C(=O)C(C)C(c2cccs2)NC1c1cccs1 (stereo unspecified)          viability     104
10      CCOC(=O)c1nc2sc3c(c2c(=O)[nH]1)CCCC3          viability    83.5

---

- assay summary: viability of HCT116 without oncogenic beta-catenin – human colon tumor cells, pilot screen (AID 823);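 note: 0% = wells killed by 20 µM Hyamine and 100% = untreated DMSO cell wells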
- condition details: HCT116 beta-catenin knockout viability, CellTiter-Glo, 60 h; at 10 µM; stronger effect = lower value
Records with an inconclusive call do not appear. Activity calls are given as the source filed them.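 The calls were made as follows: active = cell viability at or below a set limit in both duplicate runs, the limit being the all-compound median minus 4 SD (cut at about 23% in these data, passing the limit was not always enough); inconclusive = no clear call, values can overlap the other calls; inactive = the rest.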
// reported viability for each item listed
observed property: viability

                                   compound            result
0  CCOC(=O)N1CCC(NC(=O)c2cc(C(=O)NC3CCCC3)ccc2CO)CC1  92.1% (inactive)
1  N#CCCN1CCN(S(=O)(=O)c2ccc(S(=O)(=O)NC3CCCC3)cc2)CC1   101% (inactive)
2  CCOc1ccc(-c2nnc(SCC(=O)N3CCN(c4ccccc4)CC3)o2)cc1   102% (inactive)
3  CCOC(=O)N1CCN(C(=O)c2cnn(-c3ccccc3)c2NC(=O)c2ccccc2F)CC1  99.4% (inactive)
4  O=C(COC(=O)C1CC2C=CC1C2)Nc1ccc2c(c1)OC(F)(F)O2 (stereo not given)  89.2% (inactive)
5  CN(C)C(C(=O)NC1CCCCC1)c1ccc(Cl)cc1 (stereo not given)  80.2% (inactive)
6  Cc1cccc(-n2ncc3c(N4CCC5(CC4)OCCO5)ncnc32)c1    78% (inactive)
7  Cc1cccc(OCC(=O)N2CCN(C(=O)Cc3ccccc3)CC2)c1  85.4% (inactive)
8  Cc1nn(-c2ccc(F)cc2)c2c1cc(C#N)c1nc3ccccc3n12  95.9% (inactive)
9  CCCCc1cc(=O)oc2cc(OCC(=O)N(CC)CC)c(Cl)cc12  93.5% (inactive)

---

- assay summary: S. cerevisiae growth inhibition in restrictive medium, OD615, pilot screen, restrictive growth control, yeast lifespan reduction project (AID 706);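 note: modified DeaD lifespan yeast strain shifted to restrictive glucose medium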
- condition details: OD615, 48 h, at 10 µM, stronger effect = higher value
observed property: growth inhibition (%)

In [3]: df
Out[3]:
                                   compound  result
0    COc1ccc(C(=O)NCc2nnc(SC)n2C2CCCCC2)cc1    3.39
1  Cc1ccc(-n2c3c(cc(C(=O)NC4CCSC4=O)c2=O)C(=O)CC(C)(C)C3)cc1 (stereo unspecified)   -9.19
2  CCN1CCN(C(c2cccs2)C(C)NC(=O)c2ccccc2)CC1 (stereo unspecified)     1.4
3  Cc1oc(-c2cccc(Cl)c2)nc1CN1CCC(C(=O)NCCCN2CCCC2=O)CC1   -10.2
4  CCCCNC(=O)c1cc2c(-c3ccc(Cl)cc3)nn(C)c2s1    6.75
5        O=C(Nc1ccc(N2CCCC2)cc1)c1ccc(Br)o1    14.9

---

Parameter: inhibition. Scope: all listed entries.
- assay summary: growth suppression of yeast trafficking mutant, preliminary HTS, modulators of trafficking downstream of Golgi apparatus project, 1536-format plate, OD 615 nm (AID 637)
- condition details: yeast transport mutant growth, absorbance 615 nm, 18 h; stronger effect = higher value
observed property: inhibition (%)

>>> df
                                    compound  result
 0    NC(=O)c1sc2nc(N3CCCCC3)c3c(c2c1N)CCCC3    2.17
 1  COc1ccc(C)cc1NC(=O)C1CCN(S(=O)(=O)c2cccc3cccnc23)CC1   -1.48
 2  COc1ccc(-n2ncc3c(N4CCN(c5cccc(C)c5C)CC4)ncnc32)cc1   -2.17
 3  O=c1[nH]c2ccc(Br)cc2c(-c2ccccc2)c1N1CCOCC1       2
 4        N#Cc1ccc(-c2csc(NC(=O)C3CC3)n2)cc1    0.16
 5  CC(=O)NCC(=O)N(Cc1ccco1)C1(C(=O)NC2CCCCC2)CCCCC1     2.7
 6              O=C(COc1ccc2ccccc2c1)N1CCCC1      -6
 7  CCN(CC)c1ccc(NC(=O)CN2C(=O)CC(C)(C)S(=O)(=O)c3ccccc32)c(C)c1    0.83
 8  CC1(C)C(c2ccccc2)=NC(c2ccccc2)N1O (stereo not drawn)      -9
 9  CCOc1ccc(NC(=O)CN2C(=O)C3CCCN3C2=O)cc1 (stereo not drawn)    3.67
10       Oc1ccc(-c2n[nH]c(=S)n2Cc2ccccc2)cc1   -2.83
11  CCOc1ccc(N(CC(=O)Nc2cccc(OC)c2)S(=O)(=O)c2c(C)noc2C)cc1   -7.38
12   COc1ccccc1N1CCN(C(=O)c2cc(C3CC3)on2)CC1    -3.5
13  COc1ccc(C)cc1NC(=O)CNC(=O)Cn1ccc2ccccc2c1=O    1.59
14              CC(C)c1nnc(NC(=O)Cc2cccs2)s1    1.48
15  Nn1c(Cc2ccccc2F)nnc1SCC(=O)N1CC(=O)Nc2ccccc21   -10.7
16  CCOc1ccc(N2C(=O)CC(N3CC(C)OC(C)C3)C2=O)cc1 (stereo not drawn)    1.33
17                COc1ccccc1OCCNC(=O)c1cccs1   -0.18
18  COc1ccc(-c2nnc(SCC(=O)NC(C)c3ccccc3)o2)cc1 (stereo not drawn)    2.33
19  CC(C)CCN(C)C1CCN(S(=O)(=O)c2ccc(F)cc2)CC1   -4.33
20                 COCCCNC(=O)CSc1ccc(Cl)cc1   -2.67
21  Cc1cccc(CN2CCC(CNC(=O)C3CCCN(S(=O)(=O)c4cnc[nH]4)C3)CC2)c1 (stereo not drawn)   -0.66
22          Cc1ccc(-c2noc(COc3ccccc3C)n2)cc1    1.61

---

- assay summary: S. cerevisiae growth inhibition in permissive medium (OD615), pilot counter-assay for S. cerevisiae lifespan shortening project, permissive growth control (AID 705)
- condition details: OD615, 24 h, at 10 µM, stronger effect = higher value
Activity calls are given as the source filed them.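 The calls were made as follows: active = growth inhibition above 25% in both replicates, a cutoff set 3 SD above the mean; inconclusive = above 25% in only one replicate; inactive = the rest.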
Listing of entries alongside the reported growth inhibition.
observed property: growth inhibition

>>> df
                                    molecule              result
 0  CN(CP(=O)(O)C(O)c1ccccc1)S(C)(=O)=O (configuration not stated)   -4.82% (inactive)
 1         COc1ccccc1C(=O)OCn1nnc2ccccc2c1=O   -11.2% (inactive)
 2                  Cc1nonc1NC(=O)c1ccccc1Br   -16.1% (inactive)
 3  CCOC(=O)N1CCC(c2cc(=O)n3[nH]c(C)c(-c4ccc(F)cc4)c3n2)CC1    2.81% (inactive)
 4  CCn1c(=O)cc(OCC(=O)N2CCc3ccccc32)c2ccccc21     -19% (inactive)
 5  O=C(c1ccc(CNc2c(N3CCCC3)c(=O)c2=O)cc1)N1CCc2ccccc2C1      -4% (inactive)
 6      COc1ccc(CNC(=O)c2cnc3n(c2=O)CCS3)cc1    5.72% (inactive)
 7          CCOC(=O)Cc1cnc(NC(=O)c2ccccc2)s1    6.17% (inactive)
 8           C=CCSc1nc2sc(C)c(C)c2c(=O)[nH]1   -7.21% (inactive)
 9                Cc1ccc(OCCN2CCCCCC2)c(C)c1   -6.26% (inactive)
10              CCOC(=O)Cn1ncc(-c2ccccc2)c1N     2.3% (inactive)
11     CCOc1ccccc1C(=O)Nc1cc(=O)n(C)c(=O)n1C  -0.335% (inactive)
